Data credit: the supplement of paper PMC11417369

- Test system: PfAP2-EXP AP2 domain (GST-tagged)
- Procedure Details: gcPBM binding intensity (ln(normalized median fluorescence intensity)); higher = stronger DNA binding
Whole data set: some 25,000 sequences, median “ln(normalized median fluorescence intensity)” near 8.6, cut for the highest 2% near 10. The list comes from a sample in which the highest values are over-represented; it also holds close analogues and randomly drawn sequences.

| Macromolecule Sequence | Test Target | gcPBM binding intensity (ln) |
| --- | --- | --- |
| ATATATATATATATATGTACTTATGTCATCATTAAA [XGTACX_site5316] | PfAP2-EXP AP2 domain (GST-tagged) | 10.3 |
| ATAACACAAAATTGTTGTACACGTGTTAATAAGTGA [XGTACX_site4452] | PfAP2-EXP AP2 domain (GST-tagged) | 9.12 |
| TTTTAAACAGGACACACACACATATAGATTTATATA [CACACA_site6560] | PfAP2-EXP AP2 domain (GST-tagged) | 8.69 |
| TAATTAAGAATATATAGTACATAGTTGAAAAACTTT [XGTACX_site6359] | PfAP2-EXP AP2 domain (GST-tagged) | 8.41 |
| ATATTTTTTTTTTTATGTACTTATTTATAATTATTT [XGTACX_site5279] | PfAP2-EXP AP2 domain (GST-tagged) | 8.67 |
| ATATATATATATATATGTACTTATTTATTTTATATA [XGTACX_site8810] | PfAP2-EXP AP2 domain (GST-tagged) | 10.2 |
| GTATGTTTGTTATGCACACAAATGCATCTTATTTCC [CACACA_site2690] | PfAP2-EXP AP2 domain (GST-tagged) | 8.96 |
| GGGGGGGGAGGGTGAATACACACGTAATAATCATAA [CACACA_site1716] | PfAP2-EXP AP2 domain (GST-tagged) | 10.8 |
| ATGCATATAATTATATGTACATATAAGAAATATATA [XGTACX_site517] | PfAP2-EXP AP2 domain (GST-tagged) | 8.71 |
| TATTAATTATAAGATGCATGTGCAAAAATATGTTCC [TGCATGCA_site51] | PfAP2-EXP AP2 domain (GST-tagged) | 9.01 |
| ATTATTAATAATTGTGTGCACAAATATTTATATGCT | PfAP2-EXP AP2 domain (GST-tagged) | 8.86 |
| TATTATATATTAAATGCATGTAAAAATAATATTAAA [TGCATGCA_site643] | PfAP2-EXP AP2 domain (GST-tagged) | 9.24 |
| CAATTATTGTAATGCATGCACTGAATATAAAAAGAA | PfAP2-EXP AP2 domain (GST-tagged) | 10.3 |
| TATTGCCCTTGACACACACACATATAAATAAATATA [CACACA_site7220] | PfAP2-EXP AP2 domain (GST-tagged) | 8.63 |
| TTATAAAAAAAAAAAAAAAATATATATATATATATA [XGTACX_negctrl_site592] | PfAP2-EXP AP2 domain (GST-tagged) | 10.3 |
| ATGGAATAATCACGTACACACAAGAAAAAAAAAAAT [CACACA_site527] | PfAP2-EXP AP2 domain (GST-tagged) | 8.8 |
| AAATAATATATGAATGCACACAGTAAAAATTAAAGA [CACACA_site2252] | PfAP2-EXP AP2 domain (GST-tagged) | 8.94 |
| TAACTAAGGAATAATACACACAGAAATATAGATTTA [CACACA_site6293] | PfAP2-EXP AP2 domain (GST-tagged) | 8.41 |
| TATATGAAGCTATAGACACACATATAAAAATATAAT [CACACA_site4850] | PfAP2-EXP AP2 domain (GST-tagged) | 8.64 |
| TATTGCCCTGGACACACACACATATATATATATATA [CACACA_site5389] | PfAP2-EXP AP2 domain (GST-tagged) | 10.2 |
| CAAAATATTTAAAAAAGTACTTAAAATAAATTCAAA [XGTACX_site6866] | PfAP2-EXP AP2 domain (GST-tagged) | 8.48 |
| TAATCATAAAAAAATACACACATATATAATATATAT [CACACA_site1983] | PfAP2-EXP AP2 domain (GST-tagged) | 8.51 |
| TAATTGTACACATGCACACACAAATATTATAGATGT [CACACA_site6528] | PfAP2-EXP AP2 domain (GST-tagged) | 8.99 |
| ATATATATATATATATGTACTTATTAAGATTAAAAA [XGTACX_site61] | PfAP2-EXP AP2 domain (GST-tagged) | 10.2 |
| TAAATATATATTATATGTACTTATATATATATATAT [XGTACX_site4448] | PfAP2-EXP AP2 domain (GST-tagged) | 9.85 |
| TGTCATTTAATTTTTTGTACGAAAAAAACATATAAA [XGTACX_site4952] | PfAP2-EXP AP2 domain (GST-tagged) | 8.6 |
| ATAAAAAATTTAAGTATTTTTTACAAACCTATAAAT [GTGCAC_negctrl_site51] | PfAP2-EXP AP2 domain (GST-tagged) | 8.18 |
| TATATATATATATAGGTGCAATATTGAAAAAATATC [GTGCAC_site9535] | PfAP2-EXP AP2 domain (GST-tagged) | 10.3 |
| AAGTATAACCTTTATAATAATGACATGACCGATTTT [CACACA_negctrl_site395] | PfAP2-EXP AP2 domain (GST-tagged) | 8.26 |
| CCTATAATAAATAATACACACATATTGTAAATATAT [CACACA_site7496] | PfAP2-EXP AP2 domain (GST-tagged) | 8.46 |
| TATATATAGAAACACACACACATATATATATATATT [CACACA_site4115] | PfAP2-EXP AP2 domain (GST-tagged) | 8.7 |
| ATTTTTTTTTTTAATACACACAATTTTGATGAAGCA [CACACA_site3157] | PfAP2-EXP AP2 domain (GST-tagged) | 8.26 |
| GTATGTATATATGTATGTACTTATGTATCATTATTA [XGTACX_site2438] | PfAP2-EXP AP2 domain (GST-tagged) | 8.35 |
| TATATATTATATATATGTACTTATTTATTAATTTAT [XGTACX_site5253] | PfAP2-EXP AP2 domain (GST-tagged) | 8.29 |
| TGGTATATAAAACACACACACATATGTATTTATATA [CACACA_site4665] | PfAP2-EXP AP2 domain (GST-tagged) | 8.54 |
| AAAAAACACTTAAGGTGTACCTTTTAATATAAGTAT [XGTACX_site2397] | PfAP2-EXP AP2 domain (GST-tagged) | 8.38 |
| AAAATAAAAAGAAAAAATAAAAAGAAAAAATAAAAA [CACACA_negctrl_site120] | PfAP2-EXP AP2 domain (GST-tagged) | 8.33 |
| TATATATAGAAACACACACACACATATATATATATT [CACACA_site2539] | PfAP2-EXP AP2 domain (GST-tagged) | 8.73 |
| TATATTGCCCTTCACACACACACATATATATATATA [CACACA_site2492] | PfAP2-EXP AP2 domain (GST-tagged) | 10.2 |

====

- System: PfAP2-EXP AP2 domain (GST-tagged)
- Procedure Details: gcPBM binding intensity (ln(normalized median fluorescence intensity)); higher = stronger DNA binding
In all, about 25,000 sequences were measured (“ln(normalized median fluorescence intensity)”: median about 8.6, highest 2% from about 10 on). Many of the other results were omitted from the sample, so the highest values are more common in it than they were.

| Macromolecule Sequence | gcPBM binding intensity (ln) |
| --- | --- |
| ATTGGACTATAAATAGGTACACATATATATATATAT [XGTACX_site7562] | 10.4 |
| ATAAAAAAAAAAAAAAGTACACATATAAAAGTATTG [XGTACX_site8265] | 8.42 |
| AAGCATAAAGTATATAGTACATATATATATATATAT [XGTACX_site2945] | 10.2 |
| ATATAAAAAAAATTTAGTACATATATATATATATAT [XGTACX_site8635] | 10.2 |
| AGATAAAAAAAGTACACACACACATATATATATATA [CACACA_site3072] | 10.2 |
| TATATTTATAGGTACACACACACATATAAATAAATA [CACACA_site6345] | 8.65 |
| CCTTGATATATATAAAGTACATATATATATATATAT [XGTACX_site4325] | 10.2 |
| TACATATATGATAAAAGTACATATAAATATACATAA [XGTACX_site3804] | 8.45 |
| TTTTTATATGTTAAGTGTACGTTTACATTTTATACT [XGTACX_site3485] | 8.63 |
